# protocol details: Biodistribution of technetium-labelled peptides
# Assay type: in vivo, CD1 mice
# recorded conditions: mouse, in vivo, 10 ug, total radioactivity; CD1 mice, iv; 5 min; 10 μg; read-out: Excretion
Residues, ends and D or L forms follow the SMILES beside them. *: point of attachment. X1 = Cc1nn(CCN(CCN)CCCC(=O)*)c(C)c1CC(=O)O
Item-by-item account of percent of injected dose excreted at 5 min
Output spec: scalar in %ID, unitless text.

[[record]]
compound = "Cc1nn(CCN(CCN)CCCC(=O)N[C@H](C(=O)N[C@@H](CCC(N)=O)C(=O)N[C@@H](CCC(N)=O)C(=O)N[C@@H](CC(C)C)C(=O)N[C@H](C(=O)N[C@@H](CCCCN)C(=O)N[C@@H](CCCNC(=N)N)C(=O)N[C@@H](Cc2ccccc2)C(=O)N[C@@H](CO)C(=O)N[C@@H](CC(C)C)C(=O)O)[C@@H](C)O)C(C)C)c(C)c1CC(=O)O [^99mTc(CO)3-Pz^1-pepH1, metal not drawn] (X1-VQQLTKRFSL-OH; C-terminus assumed)"
units_text = "%ID"
endpoint_value = 17.1


# input Record request: percent of injected dose excreted at 5 min value, item CC[C@H](C)[C@H](NC(=O)CNC(=O)[C@H](C)NC(=O)CCCN(CCN)CCn1nc(C)c(CC(=O)O)c1C)C(=O)N[C@@H](CC(C)C)C(=O)N[C@@H](CCCCN)C(=O)N[C@@H](CCCNC(=N)N)C(=O)N[C@@H](Cc1c[nH]c2ccccc12)C(=O)O [^99mTc(CO)3-Pz^1-pepH3, metal not drawn] (X1-AGILKRW-OH; C-terminus assumed)
# output 19.6

---

# protocol details: Biodistribution of technetium-labelled peptides
# Format: in vivo, CD1 mice
# recorded conditions: CD1, kidney, iv, 80 ug/mouse, total radioactivity; 80 μg/mouse; 2 min; read-out: injected activity in Kidney
reported metric: tissue uptake at 2 min (%ID/g)
Please reply with the bare figure in %ID/g and do not write the unit itself.

# input State the recorded tissue uptake at 2 min for this entry: CSCC[C@H](NC(=O)[C@H](Cc1ccccc1)NC(=O)[C@H](CC(C)C)NC(=O)[C@H](CCCCN)NC(=O)CCCN(CCN)CCn1nc(C)c(CC(=O)O)c1C)C(=O)N[C@@H](C)C(=O)N[C@@H](CC(C)C)C(=O)N[C@H](C(=O)N[C@@H](C)C(=O)N[C@@H](Cc1ccccc1)C(=O)N[C@@H](CC(C)C)C(=O)N[C@@H](CCCNC(=N)N)C(=O)N[C@@H](Cc1ccccc1)C(=O)N[C@@H](CC(C)C)C(=O)N[C@H](C(=O)O)[C@@H](C)O)C(C)C [^99mTc(CO)3-Pz^1-pepH2, metal not drawn]
# output 5

---

Form field: BBB transmigration (one value per entry).
# System: in vitro model of the BBB (bEnd3 cells)
# protocol details: Transmigration of radiolabelled peptides across in vitro BBB model
# Format: in vitro ADME
# recorded conditions: GaCl3; 5 hours
Return type: number; implicit unit %.

Here is how some substances turned out for BBB transmigration.
[[record]]
substance = "AGILKRW (Dengue virus 2; /note=“#PepH3 (PEP+)”)"
test_system = "in vitro model of the BBB (bEnd3 cells)"
reported_metric = "BBB transmigration"
units_text = "%"
endpoint_value = 26.47

[[record]]
substance = "VQQLTKRFSL (Dengue virus 2; /note=“#PepH1”)"
test_system = "in vitro model of the BBB (bEnd3 cells)"
reported_metric = "BBB transmigration"
units_text = "%"
endpoint_value = 21.56

[[record]]
substance = "KLFMALVAFLRFLT [PepH2]"
test_system = "in vitro model of the BBB (bEnd3 cells)"
reported_metric = "BBB transmigration"
units_text = "%"
endpoint_value = 4.06


Note: attention shifts to another entry.
# input Notebook: pull reported BBB transmigration for in vitro model of the BBB (bEnd3 cells), entry KSKAINVLRGFRKEIGRMLNILN [PepH4]
# output 16.60
